From: the nanobody polyreactivity screen of Harvey et al. (2022)

experiment: yeast display, Sf9 membrane polyspecificity reagent, FACS + sequencing; frameworks hold sequencing errors

INPUT_SEQUENCE	polyreactivity (PSR sort gate)
QVQLVESGGGLVQAGGSLRLSCAASGSTFGIYAMGWYRQAPGKERELVAAIRKNGGSTYYADSVKGRFTISRDNAKNTVYLQMNSLKPEDTAVYYCNADYWIYPSYDYWGQGTQVTVSS	low polyreactivity
QVQLVESGGGLVQAGGSLRLICAASGRIFLNSTMGSYRQEPGKERELVADITWRGGSTYYADSVKGRFTISRDNAKNTVYLQMNSLKPEDTAVYYWNAVSVSSKRSDYWVQGTQVTVSS	low polyreactivity
QGQLVESCGGLVQAGGSLRFICAASGSNFFSYAMGCYRQAPWKERELVASISRRGGTTYYADSVKGRFTISRDNAKNTVYLHMNSLKPDDTAVYYCAAKLLYGGRYGYWGQGTQVTVSS	high polyreactivity
QVQLVESGGGLVQAGGSLRLSCAASGSTFRYYAMGWSRQAPGKERELVAAISRSGTSTYYADSVKGRFTISRDNAKNTVYLQMNSLKPEDTAVYYCAADWHSKIGKGYDYWGQGTQVTVSS	high polyreactivity
QVQHVESGGGLVQAGGSLRLSCAASGRIFPYYAMGWYRQAPGKEREFVAAITKRGGSTSYADSVKGRFTISRDNAKNTVYLQMNSLKPEDTAVYYCAAAGVYYGVRGTTYAYDYWGQGTQVTVSS	low polyreactivity

###

assay: yeast display, Sf9 membrane polyspecificity reagent, FACS + sequencing; frameworks hold sequencing errors
ATTRIBUTE_MEASURED: polyreactivity (PSR sort gate)

INPUT_SEQUENCE	ATTRIBUTE_MEASURED	RESULT
QVQLVESGGGLVQAGGSLRLSCAASGNTFEHYAMGWYRQAPGKERELVAAISYSGGSTYYADSVKGRFTISRDNAKNTVYLQMNSLKPEDTAVYYCNARGRASATGRRGRPDPFGYWGQGTQVTVSS	polyreactivity (PSR sort gate)	high polyreactivity
QVQLVESGGALVQAGGSLRLSCAASGSISWKNAMGWYRKAPGKERELVAAISSTVTYYADSVKGRFTISRDNAKNTVYLQMNRLKPADTAVYYCAAEYLAYTTLYTGDYWGQGTQVTVSS	polyreactivity (PSR sort gate)	low polyreactivity
QVQLVESGGGLVQAGGSLRLSCAASGSIFGWYAMGWYRQAPGKERELVADISYIGVSTYYADSVKGRFTISRDNAKNTVYLQMNTLKPEDTAVYYCATYYLLYPIPYGYPRSPEYEYWGQGTQVTVSS	polyreactivity (PSR sort gate)	low polyreactivity
QVQHVESGGGLVQAGGSLRLSCAASGSTFYINAKGWYRQAPGKEREFVASISWRGGSTYADSVKGRFTISRDNAKNTVYLQMNSLKPEDTAVYFCAAEFDVYSHHWITSYDYWGQGTQVTVSS	polyreactivity (PSR sort gate)	high polyreactivity
QVQLVESAGDLVQAGRTLRFSCAPSGSIFKPNAMGWYRQAPGKERELVDDISRSGTSTYYADSVKGRFTISRDIAKNTVYLQMNSLKPEDTAVFNCATRYSGDYGYWGQGTQVTVSS	polyreactivity (PSR sort gate)	high polyreactivity
QVQLVESGGRLVQAGGSLRLSCAASGRIFNRYAMGWYRQAPGKERELVAAITRGGSTYYADSVKGRFTMSRDNAKITVYLQMNSLKPEDSAVYYCAGRVGYPYYYWGQGTQVTVSS	polyreactivity (PSR sort gate)	high polyreactivity
QVQLVESGGGLVQAGGSLRLSCAASGSTLYHNAMGWYRQAPGKERELVAAITRGGSTYYADSVKGRFTISRDNAKNTVYLQMNILKPEDTAVYYCAVAVLVYYGKYYPYKMYYWGQGTQVTVSS	polyreactivity (PSR sort gate)	high polyreactivity
QVQLVESGGGLVQAGGSLRLSCAASGRIFQRYTMGWYRQAPGKEREFVAAITYSGGSTHYADSVKGRFTISRDNAKNTVYLQMNSLKPEDTAVYYCIADRYYGRGYGYWGQGTQVTVSS	polyreactivity (PSR sort gate)	low polyreactivity
QVQLVESGGGLVQAGGSLRLSCAASGSTFQVYAMGWYRQAPGKERELVAAISNGGRTNYADSVKGRFTISRDNAKNTVYLQMNSLKPEDTAVYYCNADQVWWSFDRVLVGYEYWGQGTQVTVSS	polyreactivity (PSR sort gate)	low polyreactivity
QVQLVESGAGLVQAGGSLRLSCAASGSIYTLNAMGWYRQAPGKEMELVAAITSSGTGTYYADSVKGRFTISRDNAKNTVYLQMNSLKPEDTAVYYCAKDRPYWLSYGSWFKFNYWGQGTQVTVSS	polyreactivity (PSR sort gate)	low polyreactivity
QVQLVESGGGLVQAGGSLRLSCAASGFTYRPNAMGWYRQAPGKERELVASIRYSGGSTYYADSVKGRFTISRDNAKNTVYLQMNSLKPEDTAVYYCAAVLYSWMRLGSTYTYDYWGQGTQVTVSS	polyreactivity (PSR sort gate)	low polyreactivity
